biological target: Genome polyprotein (Dengue virus type 2 (strain 16681-PDK53)); assay: flavivirus cap methylation enzyme inhibition – biochemical, confirmation dose response, primary screen (AID 588689); conditions: Dengue-2 NS5 methyltransferase capping enzyme assay, at 25 µM, hits give high values
About 1,000 (0.29%) of roughly 340,000 compounds were called active. Not all results are given here. Entries with a potency or affinity are not part of this list.
Parameter Measured: inhibition (%)
Form entry: value (%) — number only.

Reference set, count: 4
[[record]]
molecule = "CC1(C)SC(=S)N(/N=C/c2ccccc2)C1N(O)C(=O)Nc1ccc([N+](=O)[O-])cc1 (stereo not given)"
observed = -1.56

[[record]]
molecule = "Cc1cccc(NC(=O)CN2C(=O)/C(=C3\\SC(=S)N(CC4CCCO4)C3=O)c3ccccc32)c1 (stereo not given)"
observed = -5.35

[[record]]
molecule = "Oc1ccc2ccccc2c1CN1CCCCC1"
observed = -0.78

[[record]]
molecule = "N#CCC(=O)Nc1ccc(C(=O)NNC(=O)CCN2CCN(c3ccccc3)CC2)cc1"
observed = -13.1


## Task Give inhibition; test system Genome polyprotein (Dengue virus type 2 (strain 16681-PDK53)); molecule Cc1ccc(NC(=S)NCC2CCCO2)cc1 (stereo not given)
## Result -18

====

biological target: Genome polyprotein (Dengue virus type 2 (strain 16681-PDK53)) (UniProt P29991); experiment: flavivirus cap methylation enzyme inhibition – biochemical, confirmation dose response, primary screen (AID 588689); conditions: Dengue-2 NS5 methyltransferase capping enzyme assay, at 25 µM, hits give high values
Sequence (P29991 whole entry, looked up): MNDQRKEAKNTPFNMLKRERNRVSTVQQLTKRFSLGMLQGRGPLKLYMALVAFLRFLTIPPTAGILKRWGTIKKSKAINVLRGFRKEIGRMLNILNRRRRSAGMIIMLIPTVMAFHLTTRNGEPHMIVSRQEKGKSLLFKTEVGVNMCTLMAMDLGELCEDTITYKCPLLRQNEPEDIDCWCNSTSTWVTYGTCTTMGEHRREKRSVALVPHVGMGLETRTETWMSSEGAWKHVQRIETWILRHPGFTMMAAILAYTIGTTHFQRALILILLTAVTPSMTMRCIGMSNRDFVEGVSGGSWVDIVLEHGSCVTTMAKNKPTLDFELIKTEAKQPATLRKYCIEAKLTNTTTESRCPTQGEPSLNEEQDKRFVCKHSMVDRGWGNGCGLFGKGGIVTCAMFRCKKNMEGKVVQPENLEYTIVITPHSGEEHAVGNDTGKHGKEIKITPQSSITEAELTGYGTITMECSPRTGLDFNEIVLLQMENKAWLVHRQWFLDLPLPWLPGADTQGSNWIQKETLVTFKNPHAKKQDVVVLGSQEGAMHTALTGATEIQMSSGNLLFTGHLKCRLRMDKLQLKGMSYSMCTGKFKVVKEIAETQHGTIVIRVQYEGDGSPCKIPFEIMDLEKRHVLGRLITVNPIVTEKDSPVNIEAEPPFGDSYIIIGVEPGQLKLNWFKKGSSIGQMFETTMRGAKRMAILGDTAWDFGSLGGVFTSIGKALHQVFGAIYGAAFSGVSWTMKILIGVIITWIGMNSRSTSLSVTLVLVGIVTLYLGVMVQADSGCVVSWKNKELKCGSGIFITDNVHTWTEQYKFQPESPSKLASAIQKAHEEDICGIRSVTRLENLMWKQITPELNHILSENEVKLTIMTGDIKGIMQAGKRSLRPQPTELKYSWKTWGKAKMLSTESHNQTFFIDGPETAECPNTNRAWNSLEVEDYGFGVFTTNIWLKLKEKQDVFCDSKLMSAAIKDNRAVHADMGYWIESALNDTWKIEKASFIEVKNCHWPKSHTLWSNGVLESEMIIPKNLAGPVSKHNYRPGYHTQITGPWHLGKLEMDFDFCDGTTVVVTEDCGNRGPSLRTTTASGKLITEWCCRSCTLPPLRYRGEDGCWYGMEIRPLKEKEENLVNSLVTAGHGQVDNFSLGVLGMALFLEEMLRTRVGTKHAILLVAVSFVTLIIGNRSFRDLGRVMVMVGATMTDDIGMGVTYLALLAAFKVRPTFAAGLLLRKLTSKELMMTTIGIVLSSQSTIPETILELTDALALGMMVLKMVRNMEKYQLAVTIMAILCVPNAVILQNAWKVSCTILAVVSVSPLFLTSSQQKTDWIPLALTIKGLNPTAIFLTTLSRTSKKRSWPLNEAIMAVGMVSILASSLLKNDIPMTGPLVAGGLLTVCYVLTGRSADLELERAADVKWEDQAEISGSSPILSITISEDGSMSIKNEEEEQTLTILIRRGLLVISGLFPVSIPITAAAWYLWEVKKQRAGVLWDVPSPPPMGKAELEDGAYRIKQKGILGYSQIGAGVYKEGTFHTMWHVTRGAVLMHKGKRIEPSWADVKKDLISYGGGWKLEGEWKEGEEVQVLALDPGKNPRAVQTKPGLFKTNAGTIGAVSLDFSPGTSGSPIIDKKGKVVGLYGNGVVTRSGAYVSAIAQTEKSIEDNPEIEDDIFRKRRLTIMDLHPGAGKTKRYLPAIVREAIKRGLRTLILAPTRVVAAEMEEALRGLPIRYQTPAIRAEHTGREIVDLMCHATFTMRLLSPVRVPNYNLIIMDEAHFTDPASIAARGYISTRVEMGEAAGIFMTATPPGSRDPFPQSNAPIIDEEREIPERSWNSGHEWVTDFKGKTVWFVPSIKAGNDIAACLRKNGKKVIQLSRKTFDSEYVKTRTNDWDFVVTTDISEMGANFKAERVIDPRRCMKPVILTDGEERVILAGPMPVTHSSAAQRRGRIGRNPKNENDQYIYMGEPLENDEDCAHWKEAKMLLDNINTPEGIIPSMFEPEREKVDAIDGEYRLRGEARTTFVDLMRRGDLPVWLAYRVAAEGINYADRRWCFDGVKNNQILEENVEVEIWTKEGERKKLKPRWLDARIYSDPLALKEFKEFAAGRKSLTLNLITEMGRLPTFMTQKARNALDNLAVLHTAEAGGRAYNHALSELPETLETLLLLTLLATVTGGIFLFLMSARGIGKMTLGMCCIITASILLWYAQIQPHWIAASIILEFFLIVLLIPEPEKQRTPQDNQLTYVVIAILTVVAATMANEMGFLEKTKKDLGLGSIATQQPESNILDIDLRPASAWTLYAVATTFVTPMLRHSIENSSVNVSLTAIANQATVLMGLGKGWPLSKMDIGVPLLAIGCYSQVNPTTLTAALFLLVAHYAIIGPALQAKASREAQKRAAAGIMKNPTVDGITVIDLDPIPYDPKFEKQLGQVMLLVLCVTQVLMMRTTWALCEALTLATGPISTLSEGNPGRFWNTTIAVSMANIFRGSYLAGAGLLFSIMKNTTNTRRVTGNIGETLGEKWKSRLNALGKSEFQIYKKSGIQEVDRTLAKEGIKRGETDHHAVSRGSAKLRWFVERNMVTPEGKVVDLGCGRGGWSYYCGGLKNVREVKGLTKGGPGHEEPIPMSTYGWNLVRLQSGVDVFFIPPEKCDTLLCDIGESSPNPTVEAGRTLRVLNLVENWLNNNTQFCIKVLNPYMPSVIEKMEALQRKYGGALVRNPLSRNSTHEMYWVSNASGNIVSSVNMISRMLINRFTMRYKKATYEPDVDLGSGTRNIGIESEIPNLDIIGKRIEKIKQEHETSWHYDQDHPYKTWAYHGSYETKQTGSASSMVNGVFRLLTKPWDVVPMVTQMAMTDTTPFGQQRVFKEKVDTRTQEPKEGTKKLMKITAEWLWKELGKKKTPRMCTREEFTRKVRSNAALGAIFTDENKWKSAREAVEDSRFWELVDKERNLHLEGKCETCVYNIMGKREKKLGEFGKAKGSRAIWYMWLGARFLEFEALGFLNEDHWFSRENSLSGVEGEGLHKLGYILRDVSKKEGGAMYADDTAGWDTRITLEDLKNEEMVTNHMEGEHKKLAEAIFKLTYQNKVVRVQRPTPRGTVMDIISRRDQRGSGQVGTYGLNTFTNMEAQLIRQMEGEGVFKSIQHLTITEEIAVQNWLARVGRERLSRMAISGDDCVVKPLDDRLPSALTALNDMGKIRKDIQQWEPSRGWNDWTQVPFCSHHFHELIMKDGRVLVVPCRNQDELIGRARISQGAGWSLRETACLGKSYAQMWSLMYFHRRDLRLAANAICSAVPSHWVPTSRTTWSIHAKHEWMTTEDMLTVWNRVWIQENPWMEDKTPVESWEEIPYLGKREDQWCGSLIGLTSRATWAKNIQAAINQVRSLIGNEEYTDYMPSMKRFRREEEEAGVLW
Among all 340,000 compounds or so, about 1,000 (0.29%) were called active. A selection follows. Measured potencies and affinities stand elsewhere.
Parameter Measured: inhibition

Reference set, count: 8
[[record]]
molecule = "COc1ccc2nc3ccccc3nc2c1N"
parameter_measured = "inhibition"
observed = "40.2% (inactive)"

[[record]]
molecule = "CN1CCN(C(=O)/C(=C/c2cn(S(=O)(=O)N(C)C)c3ccccc23)NC(=O)c2ccccc2F)CC1"
parameter_measured = "inhibition"
observed = "-5.9% (inactive)"

[[record]]
molecule = "COc1cc(/C=C2\\SC(=O)N(Cc3ccc(F)cc3)C2=O)cc([N+](=O)[O-])c1O"
parameter_measured = "inhibition"
observed = "14.6% (inactive)"

[[record]]
molecule = "CCOC(=O)[C@H](C)N1[C@H](C)[C@H](c2ccccc2)Oc2ccc(Cl)cc2S1(=O)=O"
parameter_measured = "inhibition"
observed = "-5.21% (inactive)"

[[record]]
molecule = "C=CCn1c(SCc2ccc(F)cc2)nc2c1c(=O)[nH]c(=O)n2C"
parameter_measured = "inhibition"
observed = "-3.48% (inactive)"

[[record]]
molecule = "CC(=O)N1N=C(c2ccc(C)o2)CC1c1ccc(Br)cc1 (stereo not given)"
parameter_measured = "inhibition"
observed = "-4.86% (inactive)"

[[record]]
molecule = "O=C(CCCN1C(=O)/C(=C/c2ccc3c(c2)OCO3)SC1=S)Nc1cccc(C(=O)O)c1"
parameter_measured = "inhibition"
observed = "0.32% (inactive)"

[[record]]
molecule = "CSCC[C@H](NC(=O)c1cccs1)c1nnc2ccccn12"
parameter_measured = "inhibition"
observed = "5.35% (inactive)"


## Task Tell us which inhibition value is on record for `Cc1oc2c(O)c(O)ccc2c(=O)c1-c1ccccc1`
## Result 1.39% (inactive)

## Task Tell us which inhibition value is on record for `O=C(c1ccccc1)c1cn[nH]c1-c1ccccc1O`
## Result -2.78% (inactive)

====

biological target: Genome polyprotein (Dengue virus type 2 (strain 16681-PDK53)); test: flavivirus cap methylation enzyme inhibition – biochemical, confirmation dose response, primary screen (AID 588689); conditions: Dengue-2 NS5 methyltransferase capping enzyme assay, at 25 µM, hits give high values
About 1,000 (0.29%) of roughly 340,000 compounds were called active. These entries were drawn from the full list. Results with a measured potency or affinity are listed apart.
Recorded inhibition, one value per entry.
Form entry: value (%) — number only.

[[record]]
compound = "Cc1nnc(Sc2cc(NCCCO)c([N+](=O)[O-])c3nonc23)s1"
parameter_measured = "inhibition"
observed = 18.5


## Task Tell us which inhibition value is on record for `O=C(O)CSc1c2c(nc3cc(C(=O)Nc4cccc(C(F)(F)F)c4)ccc13)CCC2`
## Result 2.95

====

biological target: Genome polyprotein (Dengue virus type 2 (strain 16681-PDK53)) (UniProt P29991); assay: flavivirus cap methylation enzyme inhibition – biochemical, confirmation dose response, primary screen (AID 588689); settings: Dengue-2 NS5 methyltransferase capping enzyme assay, at 25 µM, hits give high values
The campaign covered roughly 340,000 compounds. About 1,000 (0.29%) were called active. Not all results are given here. Results with a measured potency or affinity are listed apart.
Parameter Measured: inhibition (%)
Form entry: value (%) — number only.

Reference set, count: 2
[[record]]
compound = "CN(C)c1cc(Nc2cccc(O)c2)c([N+](=O)[O-])c2nonc12"
assay_system = "Genome polyprotein (Dengue virus type 2 (strain 16681-PDK53)) (UniProt P29991)"
parameter_measured = "inhibition"
observed = 6.85

[[record]]
compound = "CCOc1ccc(NC(=O)CN(C)C(=O)C2=COCCO2)cc1OCC"
assay_system = "Genome polyprotein (Dengue virus type 2 (strain 16681-PDK53)) (UniProt P29991)"
parameter_measured = "inhibition"
observed = -3.6


## Task Tell us which inhibition value is on record for `CC(=O)Nc1ccc(Nc2cc(N(C)C)c3nonc3c2[N+](=O)[O-])cc1`
## Result -5.29

## Task Tell us which inhibition value is on record for `CCOc1ccc(S(=O)(=O)N2CCN(S(=O)(=O)c3ccc(C(C)=O)cc3)CC2)cc1`
## Result -2.49

## Task Tell us which inhibition value is on record for `CC(=O)Nc1ccc(Nc2cc(N3CCOCC3)c3nonc3c2[N+](=O)[O-])cc1`
## Result -6.25

## Task Tell us which inhibition value is on record for `Cn1c(=O)c2[nH]c(-c3ccccc3Cl)c(O)c2n(C)c1=O`
## Result -9.85

## Task Tell us which inhibition value is on record for `Cc1cc(NC(=O)CSc2nc3cc(Cl)ccc3o2)no1`
## Result 1.78

## Task Tell us which inhibition value is on record for Cc1cc(Cl)ccc1OC(C)C(=O)N1CCCN(C(=O)C(C)Oc2ccc(Cl)cc2C)CC1 (stereo not given)
## Result -1.34

## Task Tell us which inhibition value is on record for `O=[N+]([O-])c1c(Nc2ccc(O)cc2)cc(N2CCOCC2)c2nonc12`
## Result 9.17

## Task Tell us which inhibition value is on record for `CCC[C@@H](CN1CCC[C@H]1CN1C(N)=NC[C@@H]1Cc1ccccc1)N1C[C@@H]([C@H](C)CC)N(CCc2ccc(Cl)c(Cl)c2)C1=N`
## Result -10.2

====

target: Genome polyprotein (Dengue virus type 2 (strain 16681-PDK53)); experiment: flavivirus cap methylation enzyme inhibition – biochemical, confirmation dose response, primary screen (AID 588689); conditions: Dengue-2 NS5 methyltransferase capping enzyme assay, at 25 µM, hits give high values
Hit rate of the full screen: of about 340,000 compounds, about 1,000 (0.29%) were called active. Not all results are given here. Potency and affinity values are given separately.
Recorded inhibition, one value per entry.
Form entry: value (%) — number only.

## Task Tell us which inhibition value is on record for `CCN(Cc1nc2cc(Cl)ccc2c(=O)[nH]1)C(=O)c1cccc(NC(=O)c2cccs2)c1`
## Result -6.19

====

biological target: Genome polyprotein (Dengue virus type 2 (strain 16681-PDK53)); assay: flavivirus cap methylation enzyme inhibition – biochemical, confirmation dose response, primary screen (AID 588689); conditions: Dengue-2 NS5 methyltransferase capping enzyme assay, at 25 µM, hits give high values
Screen size: about 340,000 compounds; about 1,000 (0.29%) were called active. A selection follows. Measured potencies and affinities stand elsewhere.
Parameter Measured: inhibition (%)
Form entry: value (%) — number only.

Reference set, count: 5
[[record]]
compound = "Cc1cc(/C=C2/C(=O)NN(c3ccccc3)C2=O)c(C)n1-c1cccc(O)c1"
observed = 6.37

[[record]]
compound = "Cc1ccc(C)n1Cc1ccccc1Cl"
observed = -24.6

[[record]]
compound = "CC/C=C\\C/C=C\\C/C=C\\CCCCCCCC(=O)O"
observed = 2.2

[[record]]
compound = "NC(=O)N/N=C/c1ccc(-c2cccc(C(F)(F)F)c2)o1"
observed = -7.73

[[record]]
compound = "O=C(CC(=O)NN=C1CCCCCC1)NCc1cccnc1"
observed = -7.12


## Task Tell us which inhibition value is on record for `COCCNC(=O)CCn1nc(-c2ccc(C)cc2)c2ccccc2c1=O`
## Result -3.27

## Task Tell us which inhibition value is on record for CC(C)c1ccc(C2N3CC4([N+](=O)[O-])CN2CC([N+](=O)[O-])(C3)C4(C)C)cc1 (configuration not stated)
## Result -2.65

## Task Tell us which inhibition value is on record for `COC(=O)C1=C(C)NC(=O)/C1=C\c1cc(C)n(-c2ccccc2)c1C`
## Result 5.15
